Assay: Solubility of MSLs in water
Text: If the material precipitates upon cooling or was to some extent insoluble, the insoluble material was separated by filtration, dried and weighed.
Provide the reported Solubility of each item.

• CCCCOC(=O)CCCCCCCC=CCCCCCCC(C)OC1OC(CO)C(O)C(O)C1OC1OC(CO)C(O)C(O)C1O (centres unmarked) = <3000 µg/mL
• CCCCCCOC(=O)CCCCCCCC=CCCCCCCC(C)OC1OC(CO)C(O)C(O)C1OC1OC(CO)C(O)C(O)C1O (centres unmarked) = <5000 µg/mL
• CCOC(=O)CCCCCCCC=CCCCCCCC(C)OC1OC(CO)C(O)C(O)C1OC1OC(CO)C(O)C(O)C1O (centres unmarked) = <3000 µg/mL
• CCCCNC(=O)CCCCCCCC=CCCCCCCC(C)OC1OC(CO)C(O)C(O)C1OC1OC(CO)C(O)C(O)C1O (centres unmarked) [Compound 24, SL-Butyl Amide] = >40000 µg/mL

Now for another entry.
Can you share its Solubility? I mean this compound: CCNC(=O)CCCCCCCC=CCCCCCCC(C)OC1OC(CO)C(O)C(O)C1OC1OC(CO)C(O)C(O)C1O (centres unmarked) [Compound 23, SL-Ethyl Amide]
>40000 µg/mL

###

Assay: Emulsion stability based on phase separation
Assay type: physicochemical
Conditions: paraffin oil/water 5/5, 2%-by-weight emulsifier, after 24 hours at 25° C.
Hi! Just check whether emulsion layer percentage is below 60%. Below gives satisfied, equal or above gives not satisfied.

For orientation, consider the following solved cases.
• CCCCOC(=O)CCCCCCCC=CCCCCCCC(C)OC1OC(CO)C(O)C(O)C1OC1OC(CO)C(O)C(O)C1O (stereo not drawn) = satisfied
• CCCCNC(=O)CCCCCCCC=CCCCCCCC(C)OC1OC(CO)C(O)C(O)C1OC1OC(CO)C(O)C(O)C1O (stereo not drawn) [Compound 24, SL-Butyl Amide] = satisfied
• CCCCCCOC(=O)CCCCCCCC=CCCCCCCC(C)OC1OC(CO)C(O)C(O)C1OC1OC(CO)C(O)C(O)C1O (stereo not drawn) = not satisfied

Hello, I'm reviewing records and need to know if emulsion layer percentage of CCCCCCCCCCCCOS(=O)(=O)[O-].[Na+] [SDS, Sodium dodecyl sulfate, reference compound] is below 60%. Could you check?
not satisfied

###

Provide the reported CMC Range of each item.
Assay: Surface tension versus surfactant concentration: CMC and minimum surface tension
Format: physicochemical
Conditions: SL-amides; 25° C.

Consider the worked cases shown below.
* CCNC(=O)CCCCCCCC=CCCCCCCC(C)OC1OC(CO)C(O)C(O)C1OC1OC(CO)C(O)C(O)C1O (stereo not shown) [Compound 23, SL-Ethyl Amide] | 300-310 10^−6M
* CCCCNC(=O)CCCCCCCC=CCCCCCCC(C)OC1OC(CO)C(O)C(O)C1OC1OC(CO)C(O)C(O)C1O (stereo not shown) [Compound 24, SL-Butyl Amide] | 45-50 10^−6M
* CNC(=O)CCCCCCCC=CCCCCCCC(C)OC1OC(CO)C(O)C(O)C1OC1OC(CO)C(O)C(O)C1O (stereo not shown) [Compound 22, SL-Methyl Amide] | 650-670 10^−6M

Can you share its CMC Range? I mean this compound: CCCCCCNC(=O)CCCCCCCC=CCCCCCCC(C)OC1OC(CO)C(O)C(O)C1OC1OC(CO)C(O)C(O)C1O (stereo not shown) [Compound 25, SL-Hexyl Amide]
29-32 10^−6M
